- subject-of-test: human APJ receptor (Homo sapiens (Human))
- Sequence (P35414 whole entry): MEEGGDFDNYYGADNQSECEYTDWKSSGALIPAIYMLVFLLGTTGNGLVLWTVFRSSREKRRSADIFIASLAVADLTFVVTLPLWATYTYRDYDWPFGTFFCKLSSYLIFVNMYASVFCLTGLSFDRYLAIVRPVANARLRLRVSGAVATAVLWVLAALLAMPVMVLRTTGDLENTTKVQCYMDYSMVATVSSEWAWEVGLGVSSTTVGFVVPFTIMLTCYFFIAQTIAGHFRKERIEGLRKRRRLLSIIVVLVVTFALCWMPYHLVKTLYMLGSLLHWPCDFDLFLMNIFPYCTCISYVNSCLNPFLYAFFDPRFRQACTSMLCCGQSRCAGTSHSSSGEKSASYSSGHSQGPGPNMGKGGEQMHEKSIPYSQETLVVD
- experiment-description: [35S]GTPγS binding assay on membranes from CHO cells stably expressing human APJ receptor
- settings: read-out: Activity hAPJ SPA EC50 IP
pEC50: −log10 of the molar value.
# if value of pEC50 reaches 8, tag True; if it stays below, tag False

# molecule, subject-of-test, answer-label
measured = [
    ("COc1cccc(OC)c1-n1c(NS(=O)(=O)CCc2ncc(Cl)cn2)nnc1[C@H]1CCOC1 (single isomer, unassigned)", "human APJ receptor (Homo sapiens (Human))", "False"),
    ("COc1cccc(OC)c1-n1c(NS(=O)(=O)[C@@H](C)[C@H](C)c2ncc(Cl)cn2)nnc1[C@H]1CCCOC1 (single isomer, unassigned) [Example 63.0]", "human APJ receptor (Homo sapiens (Human))", "True"),
    ("COc1cccc(OC)c1-n1c(NS(=O)(=O)[C@@H](C)[C@H](OC)c2ncc(Cl)cn2)nnc1[C@@H]1CC(=O)N(C)C1 (single isomer, unassigned)", "human APJ receptor (Homo sapiens (Human))", "False"),
]

Lookup: Does the reported pEC50 for COc1cccc(OC)c1-n1c(NS(=O)(=O)[C@@H](C)[C@H](OC)c2ncc(Cl)cn2)nnc1[C@H]1CCCO1 (single isomer, unassigned) [Example 52.0] fall at or above the 8 mark?
Found: False
